So I've got a bunch of binders here, and I need their Kd values.
- System name: SARS-CoV-2 S Trimer (SARS-CoV-2, UniProt P0DTC2 16-1213)
- Experiment summary: Octet BLI, IgG, avid
# value in nM; strip the unit string

Query string: Field request: Kd | item: A-15 (antibody, V domains shown) VH: QVQLVQSGAEVKKPGASVKVSCKASGYTSSSYYMHWVRQAPGQGPEWMGIINPGGTSTSYAQKFQGRVTMTRDTSTSTVYMELSSLRSEDTAVYYCAIGYCSTTSCRWGDAFDIWGQGTMVTVSS VL: DIQVTQSPSSLSASVGDRVTITCRASQSISSYLNWYQQKPEKAPNLLIYAASSLQSGVPSRFSGSGSGTDFTLTISSLQPEDFATYYCQQSSTTPPTFGQGTKVEIK
Result string: 1.62

Query string: Param item: A-8 (antibody, V domains shown) VH: EVQLLESGGGLVQPGGSLRLSCAASGFTFSSYAMSWVRQAPGKGLEWVSAISGSGNSTSYADSVKGRFTLSRDNSKNTLYLQMNSLRAEDTAIYYCAKGLGTRSFNWGAFDYWGQGTLVTVSS VL: DIRVTQSPSSLSASVGDRVTITCRASQGISYSLAWYQQKPGKAPKLLLYAASNLESGVPSRFSGSGSGTDYTLTVSSLQPEDFATYYCQQYYSTPWTFGQGTKVEIK
Result string: 1.53

Query string: Try the binder A-16 (antibody, V domains shown) VH: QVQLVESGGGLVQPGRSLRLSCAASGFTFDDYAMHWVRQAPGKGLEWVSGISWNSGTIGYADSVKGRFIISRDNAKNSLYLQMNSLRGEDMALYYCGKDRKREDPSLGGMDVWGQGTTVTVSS VL: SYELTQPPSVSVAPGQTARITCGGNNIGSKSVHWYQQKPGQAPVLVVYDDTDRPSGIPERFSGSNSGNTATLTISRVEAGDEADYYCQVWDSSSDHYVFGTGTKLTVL
Result string: 1.15

Query string: What would you report for A-4 (antibody, V domains shown) VH: EVQLVESGGGLIQPGGSLTLSCAASGFTVSSNYMNWVRQAPGKGLEWVSVIYSGGSTYYADSVKGRFTISRDNSKNTLYLQMNSLRAEDTAVYYCAREVYSYFDYWGQGTLVTVSS VL: DIQLTQSPSFLSASVGDRVTITCRASQGISSYLAWYQQKPGKAPKLLIYAASTLQSGVPSRFSGSGSGTEFTLTISRLQPEDLATYYCQQLNSYPPHTFGQGAKLEIK ?
Result string: 1.97

Query string: And A-12 (antibody, V domains shown) VH: EVQLLESGGGLVQPGGSLRLSCAVSGLTVSSNYMSWVRQAPGKGLEWVSLIYSGGSTYYADSVKGRFTISRDNSKNTLYLQMNSLRAEDTAVYYCARGELGIPYGMDVWGQGTTVTVSS VL: QSVLTQPPSVSAAPGQKVTISCSGGSSNVGDNFVSWYQQLPGTAPKLLIYDNNRRPSGIPDRFSGSKSGTSATLGITGLQTGDEADYYCGTWDSSLSAGVFGGGTKVTVL ?
Result string: 1.11
